Below: a set of entries, each annotated with reported Solution 1 pH dil.
# Assay details: 10x dilution of soluble forms with standard IV solutions (pH, precipitate)
# Assay type: physicochemical
# Condition set: Cpd A salt solution diluted 10x with 0.9% NaCl
Please reply with the number alone, leaving off any unit.

Please look up its Solution 1 pH dil: CCn1cc(C(=O)O)c(=O)c2cc(F)c(N3CCNCC3)cc21 [A L-Cysteic]
3.17

====

# Assay details: 10x dilution of soluble forms with standard IV solutions (pH, precipitate)
# Assay type: physicochemical
# Condition set: undiluted Cpd A solution
Item-by-item account of pH of Solut.
Output spec: single numeric token, no unit.

Consider the compound shown here: CCn1cc(C(=O)O)c(=O)c2cc(F)c(N3CCNCC3)cc21 [A L-Cysteic] What is its recorded pH of Solut.?
2.92

Look up pH of Solut. for this compound: CCn1cc(C(=O)O)c(=O)c2cc(F)c(N3CCNCC3)cc21 [A D-Galacturonic]
5.44

Param item = CCn1cc(C(=O)O)c(=O)c2cc(F)c(N3CCNCC3)cc21 [A Lactic] ; retrieve measured pH of Solut..
4.17

====

# Assay details: 10x dilution of soluble forms with standard IV solutions (pH, precipitate)
# Format: physicochemical
# Condition set: undiluted low-concentration solution (26.2-52 mg/ml), diluted with Solution 1 only
Please enter satisfied where Concen. of Cpd B is greater than or equal to 50000 µg/mL, and not satisfied where it is lower.

Below are worked cases with known answers.
CCn1cc(C(=O)O)c(=O)c2cc(F)c(N3CCNCC3)nc21 [B L-Cysteic] = satisfied
CCn1cc(C(=O)O)c(=O)c2cc(F)c(N3CCNCC3)nc21 [B L-Glutamic] = not satisfied

Now consider the entry below.
Please check the record CCn1cc(C(=O)O)c(=O)c2cc(F)c(N3CCNCC3)nc21 [B Methane Sulphonic] and state if its Concen. of Cpd B is at or above 50000 µg/mL.
not satisfied

====

# Assay details: 10x dilution of soluble forms with standard IV solutions (pH, precipitate)
# Type: physicochemical
# Condition set: concentrated Cpd B solution diluted 10x with 5% Dextrose; precipitate at 24 hr
Measured metric: Solution 2 ppt 24 hr

Example entries begin here.
CCn1cc(C(=O)O)c(=O)c2cc(F)c(N3CCNCC3)nc21 [B L-Glutamic] = slight
CCn1cc(C(=O)O)c(=O)c2cc(F)c(N3CCNCC3)nc21 [B L-Aspartic] = no
CCn1cc(C(=O)O)c(=O)c2cc(F)c(N3CCNCC3)nc21 [B Acetic] = slight
CCn1cc(C(=O)O)c(=O)c2cc(F)c(N3CCNCC3)nc21 [B Methane Sulphonic] = hazy

Item under review: CCn1cc(C(=O)O)c(=O)c2cc(F)c(N3CCNCC3)nc21 [B D-Gluconic] . Reported Solution 2 ppt 24 hr?
no

Requested field: Solution 2 ppt 24 hr. Item: CCn1cc(C(=O)O)c(=O)c2cc(F)c(N3CCNCC3)nc21 [B Isethionic]
no

// Solution 2 ppt 24 hr lookup, key: CCn1cc(C(=O)O)c(=O)c2cc(F)c(N3CCNCC3)nc21 [B L-Cysteic]
hazy

I would be grateful if you could share the reported Solution 2 ppt 24 hr for CCn1cc(C(=O)O)c(=O)c2cc(F)c(N3CCNCC3)nc21 [B Lactic] .
hazy

====

# Assay details: 10x dilution of soluble forms with standard IV solutions (pH, precipitate)
# Assay type: physicochemical
# Condition set: concentrated Cpd B solution diluted 10x with 5% Dextrose + 0.9% NaCl; precipitate at 4 hr
# Method: The amount of Compound A or Compound B calculated for selected concentrations was weighed into volumetric flasks. Equimolar quantities of combining acid, amino acid, or base were added either as solutions or in dry form. Deionized water was added to bring the volume to that desired for the preselected concentrations.. All flasks were sonicated for 15 minutes, allowed to stand at room temperature for 30 minutes, then filtered through a fine frit sintered glass funnel. […]
Measured metric: Solution 3 ppt 4 hr

CCn1cc(C(=O)O)c(=O)c2cc(F)c(N3CCNCC3)nc21 [B Lactic] = yes
CCn1cc(C(=O)O)c(=O)c2cc(F)c(N3CCNCC3)nc21 [B L-Cysteic] = yes
CCn1cc(C(=O)O)c(=O)c2cc(F)c(N3CCNCC3)nc21 [B D-Gluconic] = no
CCn1cc(C(=O)O)c(=O)c2cc(F)c(N3CCNCC3)nc21 [B Methane Sulphonic] = yes

Which Solution 3 ppt 4 hr reading was recorded for the molecule CCn1cc(C(=O)O)c(=O)c2cc(F)c(N3CCNCC3)nc21 [B Acetic] ?
yes

====

# Assay details: Solubility of lyophilized and crystalline solids
# Format: physicochemical
# Condition set: CPD B salt, lyophilized solid
The following compounds are listed with their measured pH of Solution Lyo. values.
Output spec: single numeric token, no unit.

CCn1cc(C(=O)O)c(=O)c2cc(F)c(N3CCNCC3)nc21 [B Isethionic] = 1.4
CCn1cc(C(=O)O)c(=O)c2cc(F)c(N3CCNCC3)nc21 [B Methane Sulphonic] = 1.8
CCn1cc(C(=O)O)c(=O)c2cc(F)c(N3CCNCC3)nc21 [B L-Aspartic] = 4.65
CCn1cc(C(=O)O)c(=O)c2cc(F)c(N3CCNCC3)nc21 [B L-Glutamic] = 4.8

Kindly review the next compound as well.
Give the measured pH of Solution Lyo. of CCn1cc(C(=O)O)c(=O)c2cc(F)c(N3CCNCC3)nc21 [B D-Gluconic] .
4.8

====

Recorded Conc. of CPD A mg/ml Lyo. by entry
# Assay details: Solubility of lyophilized and crystalline solids
# Assay type: physicochemical
# Condition set: lyophilized solid; not necessarily maximum value
# answer = value followed by unit

Fill in the blank: the reported Conc. of CPD A mg/ml Lyo. of CCn1cc(C(=O)O)c(=O)c2cc(F)c(N3CCNCC3)cc21 [A D-Galacturonic] is ____.
256 mg/mL

What Conc. of CPD A mg/ml Lyo. value was documented for this molecule, CCn1cc(C(=O)O)c(=O)c2cc(F)c(N3CCNCC3)cc21 [A D-Gluconic] ?
255 mg/mL

Request the reported Conc. of CPD A mg/ml Lyo. associated with CCn1cc(C(=O)O)c(=O)c2cc(F)c(N3CCNCC3)cc21 [A Lactic]
256 mg/mL

# get_value(readout='Conc. of CPD A mg/ml Lyo.', item= CCn1cc(C(=O)O)c(=O)c2cc(F)c(N3CCNCC3)cc21 [A L-Glutamic] )
254 mg/mL

// Conc. of CPD A mg/ml Lyo. lookup, key: CCn1cc(C(=O)O)c(=O)c2cc(F)c(N3CCNCC3)cc21 [A L-Aspartic]
256 mg/mL

====

# Assay details: 10x dilution of soluble forms with standard IV solutions (pH, precipitate)
# Assay type: physicochemical
# Condition set: undiluted solution used for the 10x dilutions
Listed here: items and their measured Concen. of Cpd A.
# include the unit after the value

Example results:
CCn1cc(C(=O)O)c(=O)c2cc(F)c(N3CCNCC3)cc21 [A D-Galacturonic] = 166000 µg/mL
CCn1cc(C(=O)O)c(=O)c2cc(F)c(N3CCNCC3)cc21 [A D-Gluconic] = 182000 µg/mL
CCn1cc(C(=O)O)c(=O)c2cc(F)c(N3CCNCC3)cc21 [A Isethionic] = 175000 µg/mL
CCn1cc(C(=O)O)c(=O)c2cc(F)c(N3CCNCC3)cc21 [A Lactic] = 193000 µg/mL
CCn1cc(C(=O)O)c(=O)c2cc(F)c(N3CCNCC3)cc21 [A Methane Sulphonic] = 173000 µg/mL
CCn1cc(C(=O)O)c(=O)c2cc(F)c(N3CCNCC3)cc21 [A L-Cysteic] = 166000 µg/mL
CCn1cc(C(=O)O)c(=O)c2cc(F)c(N3CCNCC3)cc21 [A Acetic] = 235000 µg/mL
CCn1cc(C(=O)O)c(=O)c2cc(F)c(N3CCNCC3)cc21 [A Hydrochloric] = 201000 µg/mL
CCn1cc(C(=O)O)c(=O)c2cc(F)c(N3CCNCC3)cc21 [A L-Glutamic] = 174000 µg/mL

Continue with the molecule presented below.
Can you look up the measured Concen. of Cpd A of CCn1cc(C(=O)O)c(=O)c2cc(F)c(N3CCNCC3)cc21 [A L-Aspartic] for me?
174000 µg/mL

====

# Assay details: 10x dilution of soluble forms with standard IV solutions (pH, precipitate)
# Type: physicochemical
# Condition set: concentrated Cpd B solution (155-221 mg/ml) diluted 10x with 0.9% NaCl
Measured metric: Solution 1 pH dil
// print number alone

Check out these entries, answers already filled in.
CCn1cc(C(=O)O)c(=O)c2cc(F)c(N3CCNCC3)nc21 [B L-Aspartic] = 4.82
CCn1cc(C(=O)O)c(=O)c2cc(F)c(N3CCNCC3)nc21 [B Isethionic] = 2.08
CCn1cc(C(=O)O)c(=O)c2cc(F)c(N3CCNCC3)nc21 [B L-Glutamic] = 5.10
CCn1cc(C(=O)O)c(=O)c2cc(F)c(N3CCNCC3)nc21 [B Methane Sulphonic] = 2.3
CCn1cc(C(=O)O)c(=O)c2cc(F)c(N3CCNCC3)nc21 [B D-Gluconic] = 4.6
CCn1cc(C(=O)O)c(=O)c2cc(F)c(N3CCNCC3)nc21 [B Acetic] = 5.2
CCn1cc(C(=O)O)c(=O)c2cc(F)c(N3CCNCC3)nc21 [B Lactic] = 4.1

Returns the measured Solution 1 pH dil for the input compound. Input: CCn1cc(C(=O)O)c(=O)c2cc(F)c(N3CCNCC3)nc21 [B L-Cysteic]
2.8
